- assay_system: Gamma-aminobutyric acid receptor subunit alpha-5/beta-2/gamma-2 (Homo sapiens, UniProt P18507+P31644+P47870)
- Sequence (P47870 whole entry): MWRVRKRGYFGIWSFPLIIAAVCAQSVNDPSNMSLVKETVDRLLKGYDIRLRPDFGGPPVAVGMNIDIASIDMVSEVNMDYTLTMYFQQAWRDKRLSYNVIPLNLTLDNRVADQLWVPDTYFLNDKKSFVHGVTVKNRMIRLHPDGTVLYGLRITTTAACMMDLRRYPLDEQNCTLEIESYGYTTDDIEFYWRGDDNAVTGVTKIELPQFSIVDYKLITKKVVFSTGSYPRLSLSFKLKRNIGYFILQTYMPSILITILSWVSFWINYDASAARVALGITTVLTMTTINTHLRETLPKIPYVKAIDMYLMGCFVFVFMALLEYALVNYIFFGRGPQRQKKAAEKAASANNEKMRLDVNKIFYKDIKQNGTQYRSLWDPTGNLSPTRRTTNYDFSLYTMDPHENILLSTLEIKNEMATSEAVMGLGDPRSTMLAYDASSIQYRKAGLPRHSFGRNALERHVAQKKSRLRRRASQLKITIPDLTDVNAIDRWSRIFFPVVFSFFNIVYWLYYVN
- Sequence (P18507 whole entry): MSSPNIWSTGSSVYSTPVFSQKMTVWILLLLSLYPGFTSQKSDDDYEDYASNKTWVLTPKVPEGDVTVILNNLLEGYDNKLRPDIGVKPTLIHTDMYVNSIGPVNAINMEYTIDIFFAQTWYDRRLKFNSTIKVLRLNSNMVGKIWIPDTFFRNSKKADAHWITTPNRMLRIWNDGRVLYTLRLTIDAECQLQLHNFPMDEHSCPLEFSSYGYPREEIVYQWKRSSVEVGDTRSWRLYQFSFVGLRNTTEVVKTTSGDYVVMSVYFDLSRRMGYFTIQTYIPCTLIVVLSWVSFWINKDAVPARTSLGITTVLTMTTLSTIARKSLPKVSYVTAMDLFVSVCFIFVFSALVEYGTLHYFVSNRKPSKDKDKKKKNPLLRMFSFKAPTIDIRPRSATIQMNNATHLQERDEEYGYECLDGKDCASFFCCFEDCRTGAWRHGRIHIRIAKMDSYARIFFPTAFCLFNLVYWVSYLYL
- Sequence (P31644 whole entry): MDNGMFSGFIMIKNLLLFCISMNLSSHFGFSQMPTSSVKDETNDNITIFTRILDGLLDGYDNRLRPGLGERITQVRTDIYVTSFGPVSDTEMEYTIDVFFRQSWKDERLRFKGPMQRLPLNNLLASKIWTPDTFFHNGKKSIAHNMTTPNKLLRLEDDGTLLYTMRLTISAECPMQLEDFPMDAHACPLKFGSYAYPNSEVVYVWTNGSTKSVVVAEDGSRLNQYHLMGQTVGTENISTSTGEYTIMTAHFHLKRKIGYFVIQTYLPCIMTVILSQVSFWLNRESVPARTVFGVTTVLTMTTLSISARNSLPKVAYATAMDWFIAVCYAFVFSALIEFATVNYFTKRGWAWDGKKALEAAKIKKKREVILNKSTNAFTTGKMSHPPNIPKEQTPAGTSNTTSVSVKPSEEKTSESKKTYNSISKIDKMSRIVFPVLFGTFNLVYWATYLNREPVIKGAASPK
- test_summary: Agonist activity at recombinant human GABA-A alpha5beta2gamma2S receptor transiently expressed in human tsA201 cells incubated for 30 mins and measured up to 90 secs by FMP dye based FLIPR membrane potential blue assay
reported_metric: EC50 (µM)

Below, 3 compounds whose answers are already recorded.
{"columns": ["compound", "EC50 / µM"],
 "data": [
  ["C[C@@H]1SC(N)=N[C@@H]1CC(=O)O (relative stereo)", 8.2],
  ["O=C(O)C[C@@H]1CCNC1", 24],
  ["O=C(O)Cc1c[nH]cn1", 1.8]
]}

(P) O=C(O)C[C@H]1CCNC1
(Q) CC(C(=O)O)C1CSC(N)=N1 (stereo in doubt; l-10a)
query: Larger number for EC50: P , or Q ? Response format: the label of the selected entry.
result: Q

Numbers sourced from ChEMBL document CHEMBL4396887.
